# test.description: gradient 5% acetonitrile 3 min, to 50% in 2 min, to 85% in 15 min, held 3 min, 100 µL/min
# condition.info: column: Zorbax Extend-C18 2.1 x 50 mm; eluents: water / acetonitrile, 0.1% formic acid
measured.property: RP-LC retention time (s)

Reference set, count: 3
Cc1cccc(CCNC(=S)Nc2ccc3nc(N4CCN(C)CC4)cc(C)c3c2)c1	618
O=C(Cn1cc(-c2ccccc2)c2ncnc(N3CCOCC3)c21)N1CCN(c2ccccc2)CC1	717
O=C(CCc1c[nH]c2ccccc12)N1CCOc2ccc(N3CCOCC3)cc2C1	770

(A) CCOC(=O)Cc1cc(=O)oc2cc(O)cc(O)c12
(B) CN(C)c1ccc(-c2nc(-c3cn(Cc4cccc(F)c4)nn3)no2)cc1
Request: Hi! Which is lower in terms of RP-LC retention time, the first one A or the second one B ? Output the label that corresponds to your choice.
Response: A
